# tested-system: HLA-DRB1*04:01 (Homo sapiens, UniProt P01903+P01911, A100K/A169T/F76Y/I96L/K127E/L162R/M171V/N62H/P40V/Q125Y/R42H/S133A/S149N/S66Y/V115G/V209L/W38E)
# Construct: EBV transformed homozygous cell lines were used as sources of MHC molecules; endogenous in cells; host or cells: EBV transformed homozygous cell lines
# test-name: HLA class II peptide binding, inhibition of radiolabeled peptide binding to purified MHC
# conditions: ratio of WT IC50 to Cit IC50; >1 = citrullination increases binding
Square brackets hold non-standard residues; d marks the D form. Peptide text beside a SMILES is read from it. Cit = NC(=O)NCCC[C@H](N)C(=O)O
Some compounds, each annotated with its measured DRB1*04:01 binding capacity, WT/cit ratio.
measured-parameter: DRB1*04:01 binding capacity, WT/cit ratio

compound | assay-result
C[C@H](NC(=O)CNC(=O)[C@@H]1CCCN1C(=O)[C@H](CO)NC(=O)CNC(=O)[C@H](CCC(=O)O)NC(=O)[C@@H](N)CCCNC(=N)N)C(=O)N[C@@H](CC(=O)O)C(=O)NCC(=O)N1CCC[C@H]1C(=O)N1CCC[C@H]1C(=O)NCC(=O)N[C@@H](CCCNC(N)=O)C(=O)N[C@@H](CC(=O)O)C(=O)NCC(=O)O [REGSPGADGPPGXDG] (H-REGSPGADGPPG[Cit]DG-OH; N-terminus and C-terminus assumed) | 1.0
CC[C@H](C)[C@H](NC(=O)[C@H](CCCNC(N)=O)NC(=O)[C@H](CS)NC(=O)[C@@H]1CCCN1)C(=O)N[C@@H](CS)C(=O)N[C@H](C(=O)N[C@@H](CS)C(=O)N[C@@H](CC(=O)O)C(=O)N[C@H](C(=O)NCC(=O)N[C@H](C(=O)N[C@H](C(=O)N[C@@H](CC(C)C)C(=O)N[C@@H](CS)C(=O)N[C@@H](CC(=O)O)C(=O)O)C(C)C)[C@@H](C)O)[C@@H](C)O)C(C)C [PCXICVCDTGTVLCD] (H-PC[Cit]ICVCDTGTVLCD-OH; N-terminus and C-terminus assumed) | 1.2
CSCC[C@H](NC(=O)[C@@H]1CCCN1C(=O)CNC(=O)[C@H](CCC(N)=O)NC(=O)[C@H](C)NC(=O)CNC(=O)[C@H](C)NC(=O)[C@H](CCC(=O)O)NC(=O)CNC(=O)[C@H](CCCNC(N)=O)NC(=O)[C@H](CC(=O)O)NC(=O)CN)C(=O)NCC(=O)N1CCC[C@H]1C(=O)N[C@@H](CO)C(=O)O [GDXGEAGAQGPMGPS] (H-GD[Cit]GEAGAQGPMGPS-OH; N-terminus and C-terminus assumed) | 1.0
CC(C)[C@H](NC(=O)[C@H](CC(=O)O)NC(=O)[C@H](CCCCN)NC(=O)[C@H](CC(=O)O)NC(=O)[C@H](CC(N)=O)NC(=O)[C@H](Cc1ccc(O)cc1)NC(=O)[C@H](CCCNC(N)=O)NC(=O)[C@H](CCC(N)=O)NC(=O)CNC(=O)[C@H](CC(=O)O)NC(=O)[C@@H](N)CCC(N)=O)C(=O)N[C@@H](Cc1c[nH]c2ccccc12)C(=O)N[C@@H](CCCCN)C(=O)N1CCC[C@H]1C(=O)N[C@@H](CCC(=O)O)C(=O)O [QDGQXYNDKDVWKPE] (H-QDGQ[Cit]YNDKDVWKPE-OH; N-terminus and C-terminus assumed) | 1.0
CC(C)C[C@H](NC(=O)CNC(=O)[C@H](CCC(N)=O)NC(=O)[C@@H]1CCCN1C(=O)CNC(=O)[C@@H]1CCCN1C(=O)[C@@H]1CCCN1C(=O)CNC(=O)[C@H](CCC(=O)O)NC(=O)[C@H](C)NC(=O)CN)C(=O)N[C@@H](C)C(=O)NCC(=O)N[C@@H](CCC(N)=O)C(=O)N[C@@H](CCCNC(N)=O)C(=O)O [GAEGPPGPQGLAGQX] (H-GAEGPPGPQGLAGQ[Cit]-OH; N-terminus and C-terminus assumed) | 1.0
C[C@H](NC(=O)CNC(=O)[C@H](CCCCN)NC(=O)[C@@H]1CCCN1C(=O)CNC(=O)[C@H](CC(=O)O)NC(=O)[C@H](CCCCN)NC(=O)CNC(=O)[C@H](CO)NC(=O)[C@@H]1CCCN1C(=O)CN)C(=O)N[C@@H](CCCNC(N)=O)C(=O)NCC(=O)N[C@@H](CC(=O)O)C(=O)N[C@@H](CO)C(=O)O [GPSGKDGPKGAXGDS] (H-GPSGKDGPKGA[Cit]GDS-OH; N-terminus and C-terminus assumed) | 1.0
C[C@H](NC(=O)CNC(=O)[C@H](CCCCN)NC(=O)[C@@H]1CCCN1C(=O)CNC(=O)[C@@H](N)CC(=O)O)C(=O)N[C@@H](CCCNC(N)=O)C(=O)NCC(=O)N[C@@H](CC(=O)O)C(=O)N[C@@H](CO)C(=O)NCC(=O)N1CCC[C@H]1C(=O)N1CCC[C@H]1C(=O)NCC(=O)N[C@@H](CCCNC(=N)N)C(=O)O [DGPKGAXGDSGPPGR] (H-DGPKGA[Cit]GDSGPPGR-OH; N-terminus and C-terminus assumed) | 0.548
C[C@H](NC(=O)CNC(=O)[C@@H]1CCCN1C(=O)[C@H](CO)NC(=O)CNC(=O)[C@H](CCC(=O)O)NC(=O)[C@@H](N)CCCNC(N)=O)C(=O)N[C@@H](CC(=O)O)C(=O)NCC(=O)N1CCC[C@H]1C(=O)N1CCC[C@H]1C(=O)NCC(=O)N[C@@H](CCCNC(=N)N)C(=O)N[C@@H](CC(=O)O)C(=O)NCC(=O)O [XEGSPGADGPPGRDG] (H-[Cit]EGSPGADGPPGRDG-OH; N-terminus and C-terminus assumed) | 1.0
C[C@H](N)C(=O)N[C@@H](CCCNC(N)=O)C(=O)NCC(=O)N[C@@H](C)C(=O)N[C@@H](CCC(N)=O)C(=O)NCC(=O)N1CCC[C@H]1C(=O)N1CCC[C@H]1C(=O)NCC(=O)N[C@@H](C)C(=O)N[C@H](C(=O)NCC(=O)N[C@@H](Cc1ccccc1)C(=O)N1CCC[C@H]1C(=O)NCC(=O)O)[C@@H](C)O [AXGAQGPPGATGFPG] (H-A[Cit]GAQGPPGATGFPG-OH; N-terminus and C-terminus assumed) | 1.0

====

# tested-system: HLA-DRB1*04:01 (Homo sapiens, UniProt P01903+P01911, A100K/A169T/F76Y/I96L/K127E/L162R/M171V/N62H/P40V/Q125Y/R42H/S133A/S149N/S66Y/V115G/V209L/W38E)
# Construct: EBV transformed homozygous cell lines were used as sources of MHC molecules; endogenous in cells; host or cells: EBV transformed homozygous cell lines
# test-name: HLA class II peptide binding, inhibition of radiolabeled peptide binding to purified MHC; for IC50 DRB1*04:01: competition with radiolabeled peptide (0.1–1 nM)
# conditions: read-out: IC50 DRB1*04:01
Ends that are not written are not given here.

primary-sequence | reading-unit | censor-symbol | IC50
SAVRLRSSVPGVR [Vimentin 66–78 WT] | nM | = | 13100
NQDFTNRINKLKNS [Fibrinogen 78–91 WT] | nM | > | 30000
VVLLVATEGRVRVNSAYQDK [Aggrecan 84–103 WT] | nM | = | 713
LQYMRADQAAGGLR [Collagen II 1236–1249 WT] | nM | = | 9.7

====

# IC50 annotations
# tested-system: DRB1*04:02 (Homo sapiens, UniProt P01903+P01911, A100E/A169T/F76Y/K127E/L162R/M171V/N62H/P40V/Q125Y/Q99D/R42H/S133A/S149N/S66Y/V209L/W38E)
# test-name: HLA class II peptide binding, inhibition of radiolabeled peptide binding to purified MHC
# conditions: SE-, competition with radiolabeled peptide, two-day incubation, three or more independent experiments
Ends that are not written are not given here.
measured-parameter: IC50 (µM)

primary-sequence | censor-symbol | assay-result
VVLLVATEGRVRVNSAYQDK [Aggrecan 84–103 WT] | = | 0.501
NQDFTNRINKLKNS [Fibrinogen 78–91 WT] | > | 30
LQYMRADQAAGGLR [Collagen II 1236–1249 WT] | = | 0.118
SAVRLRSSVPGVR [Vimentin 66–78 WT] | = | 0.927

====

# tested-system: HLA-DRB1*01:01 (Homo sapiens, UniProt P01903+P01911, A100R/D57E/F55L/F60I/F76Y/I96L/L162R/M171V/P40L/Q125E/R42F/V115G/Y59C)
# Construct: EBV transformed homozygous cell lines were used as sources of MHC molecules; endogenous in cells; host or cells: EBV transformed homozygous cell lines
# test-name: HLA class II peptide binding, inhibition of radiolabeled peptide binding to purified MHC
# conditions: citrullinated peptide as listed (X at Cit position); read-out: DRB1*01:01 binding capacity Cit peptide (IC50 nM)
Square brackets hold non-standard residues; d marks the D form. Peptide text beside a SMILES is read from it. Cit = NC(=O)NCCC[C@H](N)C(=O)O

compound | reading-unit | IC50
CC[C@H](C)[C@H](NC(=O)[C@H](CC(C)C)NC(=O)[C@@H](N)CC(C)C)C(=O)N[C@@H](CCC(N)=O)C(=O)NCC(=O)N[C@@H](CO)C(=O)N[C@@H](CC(N)=O)C(=O)N[C@@H](CC(=O)O)C(=O)N[C@H](C(=O)N[C@@H](CCC(=O)O)C(=O)N[C@H](C(=O)N[C@@H](CCCNC(N)=O)C(=O)N[C@@H](C)C(=O)N[C@@H](CCC(=O)O)C(=O)NCC(=O)O)[C@@H](C)CC)C(C)C [LLIQGSNDVEIXAEG] (H-LLIQGSNDVEI[Cit]AEG-OH) | nM | 998
CSCC[C@H](NC(=O)[C@H](Cc1ccc(O)cc1)NC(=O)[C@H](CCC(N)=O)NC(=O)[C@H](CC(C)C)NC(=O)[C@@H]1CCCN1C(=O)[C@H](CC(=O)O)NC(=O)[C@@H]1CCCN1C(=O)CNC(=O)[C@H](CCCCN)NC(=O)[C@H](CCC(=O)O)NC(=O)[C@H](CCCNC(=N)N)NC(=O)[C@@H]1CCCN1C(=O)CNC(=O)[C@@H](N)CC(C)C)C(=O)N[C@@H](CCCNC(N)=O)C(=O)O [LGPREKGPDPLQYMX] (H-LGPREKGPDPLQYM[Cit]-OH) | nM | 19700
CC[C@H](C)[C@H](NC(=O)[C@H](CCC(N)=O)NC(=O)[C@H](CC(N)=O)NC(=O)[C@H](CC(N)=O)NC(=O)[C@H](CC(C)C)NC(=O)[C@@H](N)CO)C(=O)N[C@@H](CCC(=O)O)C(=O)N[C@@H](CO)C(=O)N[C@H](C(=O)N[C@@H](CCCNC(N)=O)C(=O)N[C@@H](CO)C(=O)N1CCC[C@H]1C(=O)N[C@@H](CCC(=O)O)C(=O)NCC(=O)N[C@@H](CO)C(=O)O)[C@@H](C)CC [SLNNQIESIXSPEGS] (H-SLNNQIESI[Cit]SPEGS-OH) | nM | 6.5
CC[C@H](C)[C@H](NC(=O)[C@@H](NC(=O)[C@@H](NC(=O)[C@H](CCCCN)NC(=O)CN)[C@@H](C)O)C(C)C)C(=O)N[C@@H](CCC(=O)O)C(=O)N[C@@H](Cc1ccc(O)cc1)C(=O)N[C@@H](CCCNC(=N)N)C(=O)N[C@@H](CO)C(=O)N[C@@H](CCC(N)=O)C(=O)N[C@@H](CCCCN)C(=O)N[C@H](C(=O)N[C@@H](CO)C(=O)N[C@@H](CCCNC(N)=O)C(=O)N[C@@H](CC(C)C)C(=O)O)[C@@H](C)O [GKTVIEYRSQKTSXL] (H-GKTVIEYRSQKTS[Cit]L-OH) | nM | 9.3
